biological target: Mitogen-activated protein kinase 14 (Homo sapiens, UniProt Q16539)
Sequence (Q16539 whole entry): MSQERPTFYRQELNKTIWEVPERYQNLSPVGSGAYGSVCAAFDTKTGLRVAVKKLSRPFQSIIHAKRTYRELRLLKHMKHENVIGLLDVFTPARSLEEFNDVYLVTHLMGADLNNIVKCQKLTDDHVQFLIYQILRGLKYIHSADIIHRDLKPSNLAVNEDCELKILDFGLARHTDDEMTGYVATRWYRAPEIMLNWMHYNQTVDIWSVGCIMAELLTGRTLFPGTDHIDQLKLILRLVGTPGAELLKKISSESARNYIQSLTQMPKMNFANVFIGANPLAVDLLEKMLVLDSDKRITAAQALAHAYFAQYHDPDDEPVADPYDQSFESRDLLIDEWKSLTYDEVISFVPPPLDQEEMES
reported_property: pIC50
Scale note: pIC50 = -log10(concentration in M).

Solved entries (count: 4):
{"chemical_structure": "COc1cc2ncnc(Nc3ccc(Cl)c(NC(=O)c4ccccc4)c3)c2cc1OC", "reported_property": "pIC50", "recorded_result": 6.21}
{"chemical_structure": "COc1cc2ncnc(Nc3cc(NC(=O)c4ccnc(N5CCOCC5)c4)ccc3C)c2cc1OCCN(C(C)C)C(C)C", "reported_property": "pIC50", "recorded_result": 7.30}
{"chemical_structure": "Cc1ccc(NC(=O)c2ccnc(N3CCOCC3)c2)cc1Nc1ccnc(Cl)n1", "reported_property": "pIC50", "recorded_result": 8.00}
{"chemical_structure": "COc1cc2ncnc(Nc3cccc(NC(=O)c4ccccc4)c3)c2cc1OC", "reported_property": "pIC50", "recorded_result": 6.85}

Proceeding to the next molecule to report its pIC50.
Q) Entry Cc1ccc(NC(=O)c2ccnc(N3CCOCC3)c2)cc1Nc1ccnc(OCCCN(C)C)n1 : reported pIC50 = ?
A) 7.52

* * *

assay: oral bioavailability after p.o. dosing at 1 mg/kg; details: rat, in vivo, read-out: Bioavailabiility
reported_property: bioavailability (%)
Record the value in %, omitting the unit from your answer.

Q) What bioavailability value was documented for this compound, CSc1nccc(Nc2cc(NC(=O)c3cc(F)cc(N4CCOCC4)c3)ccc2C)n1 ?
A) 26

* * *

species on record: Homo sapiens; assay: Concentration required to inhibit TNF-alpha production was determined in human whole blood; assay type: functional
pIC50: −log10 of the molar value.
Param threshold (5) applies to pIC50; output 1.0 when value >= threshold, 0.0 when value < threshold.

Reference set, count: 4
{"molecule": "CCCN1CCC(Oc2nccc(Nc3cc(NC(=O)c4cccc(N5CCOCC5)c4)ccc3C)n2)CC1", "category": 1.0}
{"molecule": "Cc1ccc(NC(=O)c2ccnc(N3CCOCC3)c2)cc1Nc1cc(Cl)ncn1", "category": 0.0}
{"molecule": "COc1cc2ncnc(Nc3cc(NC(=O)c4cccc(N(C)C)c4)ccc3Cl)c2cc1OC", "category": 0.0}
{"molecule": "COc1cc2ncnc(Nc3cc(NC(=O)c4ccccc4)c(F)cc3F)c2cc1OC", "category": 0.0}

Q) Would you say COc1cc2ncnc(Nc3cc(NC(=O)c4ccnc(N5CCOCC5)c4)ccc3C)c2cc1OCCN(C(C)C)C(C)C shows pIC50 at minimum 5?
A) 1.0

Q) Now consider Cc1ccc(NC(=O)c2ccnc(N3CCOCC3)c2)cc1Nc1ccnc(NCCCN2CCOCC2)n1 .
A) 0.0

Q) Record: Cc1ccc(NC(=O)c2ccnc(N3CCOCC3)c2)cc1Nc1ccnc(OCC2CCCN(C)C2)n1 (configuration not stated)
A) 1.0

Q) And what about the molecule COc1cc2ncnc(Nc3cc(NC(=O)c4ccnc(N5CCOCC5)c4)ccc3C)c2cc1OCCN1CCCCC1 ?
A) 1.0

Q) How about COc1cc2ncnc(Nc3cccc(NC(=O)c4ccccc4)c3)c2cc1OC ?
A) 0.0

Q) Entry Cc1ccc(NC(=O)c2ccnc(N3CCOCC3)c2)cc1Nc1ccnc(OC2CCN(C)CC2)n1 please
A) 1.0

Q) Here is the next molecule: COc1cc2ncnc(Nc3cccc(NC(=O)c4ccccc4)c3F)c2cc1OC
A) 0.0
